# Test system: MDA-MB-468
# experiment notes: phospho-S6 immunofluorescence (DAPI-normalised), per-plate z-score; higher = higher phospho-S6 signal (less pathway suppression)
# assay setup: co-treatment: GDC0941 450 nM; 24 h
Structures can show the parent of a compound that is named as a salt.
Please provide measured phospho-S6 immunofluorescence (z-score) for the entries that follow.
Response field accepts a number only; no unit should be typed.

Using the record for CC(C)(Cc1nc(-c2ccc(O)cn2)no1)C(=O)NC1=C(C(=O)O)CCCC1 (compound 10 µM) , report its phospho-S6 immunofluorescence (z-score).
0.73

Another: Cc1ccccc1N1CCN(CCc2nnc3n2CCCC3)CC1 [Dapiprazole (hydrochloride)] (compound 10 µM)
0.31

What would you report for C[N+]1(C)CCC(=C(c2ccccc2)c2ccccc2)CC1 [Diphenmanil (methylsulfate)] (compound 10 µM) ?
0.46

// same read-out, input: Cc1ccccc1C(=O)Nc1ccc(C(=O)N2CCCC(O)c3cc(Cl)ccc32)c(C)c1 (centres undefined) [Tolvaptan] (compound 10 µM)
0.01

---

# Test system: MDA-MB-468
# experiment notes: phospho-S6 immunofluorescence (DAPI-normalised), per-plate z-score; higher = higher phospho-S6 signal (less pathway suppression)
# assay setup: co-treatment: vehicle; 24 h
Counter-ions that a name gives are not always drawn.
test readout: phospho-S6 immunofluorescence (z-score)
Please give only the number in your answer, with no unit.

Can you look up the measured phospho-S6 immunofluorescence (z-score) of CC(=O)OCC(=O)[C@@]1(O)CC[C@H]2[C@@H]3CCC4=CC(=O)CC[C@]4(C)[C@H]3C(=O)C[C@@]21C [Cortisone (acetate)] (compound 10 µM) for me?
0.93

Repeat with CCCCC[C@H](O)/C=C/[C@H]1[C@H](O)CC(=O)[C@@H]1C/C=C\CCCC(=O)O [Prostaglandin E2] (compound 10 µM)
-0.52

Try COc1cc(NC(=O)c2ccccn2)ccc1Cl (compound 10 µM) next.
0.28

// repeat for NCCCCN(Cc1nc2ccccc2[nH]1)[C@H]1CCCc2cccnc21 [AMD-070 (hydrochloride)] (compound 10 µM) and report
-3.01

---

# Tested on: MDA-MB-468
# experiment notes: phospho-S6 immunofluorescence (DAPI-normalised), per-plate z-score; higher = higher phospho-S6 signal (less pathway suppression)
# assay setup: co-treatment: vehicle; 24 h
Structures can show the parent of a compound that is named as a salt.
test readout: phospho-S6 immunofluorescence (z-score)
Could you keep your reply to the number by itself?

Entry O=C1Cc2cc(CCN3CCN(c4nsc5ccccc45)CC3)c(Cl)cc2N1 [Ziprasidone (hydrochloride monohydrate)] (compound 10 µM) : reported phospho-S6 immunofluorescence (z-score) = ?
-5.97

Also OCCOCCN1CCN(C2=Nc3ccccc3Sc3ccccc32)CC1 [Quetiapine] (compound 10 µM) ?
0.64

Queued: O=C(O[C@H]1CN2CCC1CC2)N1CCc2ccccc2[C@@H]1c1ccccc1 [Solifenacin (Succinate)] (compound 10 µM)
-0.65

Param item: COCCCN1CCC(NC(=O)c2cc(Cl)c(N)c3c2OCC3)CC1 [Prucalopride (succinate)] (compound 10 µM)
-1.84

---

# System: MDA-MB-468
# experiment notes: phospho-S6 immunofluorescence (DAPI-normalised), per-plate z-score; higher = higher phospho-S6 signal (less pathway suppression)
# assay setup: co-treatment: vehicle; 24 h
Where a name gives a salt, the structure may show the parent alone.
Returns 1.0 if the recorded phospho-S6 immunofluorescence (z-score) is greater than or equal to -0.2, and 0.0 otherwise.

# check: phospho-S6 immunofluorescence (z-score) of Cc1cc(O[C@@H](CCC(F)(F)F)c2ccc(C(=O)NCCC(=O)O)cc2)cc(C)c1-c1ccc(C(C)(C)C)cc1 [Adomeglivant] (compound 10 µM) is greater than or equal to -0.2
0.0

What do we get for O=C1c2cccc3c2[C@H](CCC3)CN1[C@@H]1CN2CCC1CC2 [Palonosetron (Hydrochloride)] (compound 10 µM) ?
0.0

Likewise for c1ccc(CN(CC2=NCCN2)c2ccccc2)cc1 [Antazoline (hydrochloride)] (compound 10 µM) ?
1.0

Similarly, Cc1ccccc1C(=O)Nc1ccc(C(=O)N2CCCC(N(C)C)c3ccccc32)cc1 (stereo unspecified) [Mozavaptan] (compound 10 µM) ?
1.0

Now give it for CC[C@H](C)[C@@H]1NC(=O)[C@H](Cc2ccc(O)cc2)NC(=O)[C@@H](N)CSSC[C@@H](C(=O)N2CCC[C@H]2C(=O)N[C@@H](CC(C)C)C(=O)NCC(N)=O)NC(=O)[C@H](CC(N)=O)NC(=O)[C@H](CCC(N)=O)NC1=O [Oxytocin (acetate)] (compound 10 µM) too.
0.0

Another: N#Cc1cc(NC(=O)C(=O)O)c(Cl)c(NC(=O)C(=O)O)c1 [Lodoxamide] (compound 10 µM)
1.0

---

# Tested on: MDA-MB-468
# experiment notes: phospho-S6 immunofluorescence (DAPI-normalised), per-plate z-score; higher = higher phospho-S6 signal (less pathway suppression)
# assay setup: co-treatment: lapatinib 1 uM; 24 h
Where a name gives a salt, the structure may show the parent alone.
test readout: phospho-S6 immunofluorescence (z-score)
Reply with the value as a number alone.

Lab note: need phospho-S6 immunofluorescence (z-score) with MDA-MB-468 for entry COc1ccc(C2CC(c3ccccc3)=NN2c2ccc(S(N)(=O)=O)cc2)cc1 (stereo not given) (compound 10 µM) , please look it up.
-0.2

Can you check CC1(C)O[C@@H]2[C@@H](CO[C@@]3(COS(N)(=O)=O)OC(C)(C)O[C@@H]23)O1 [Topiramate] (compound 10 µM) next?
0.19

Another compound: NCCCCN(Cc1nc2ccccc2[nH]1)[C@H]1CCCc2cccnc21 [AMD-070 (hydrochloride)] (compound 10 µM)
-3.44

Item: COc1ccc(NS(=O)(=O)c2sc3ccc(Cl)cc3c2C)cc1N1CCNCC1 (compound 10 µM)
-1

And the next one, CN1CCC[C@@H]1CCO[C@](C)(c1ccccc1)c1ccc(Cl)cc1 [Clemastine (fumarate)] (compound 10 µM) ?
-3.01

Further, for Cc1ccccc1N1CCN(CCc2nnc3n2CCCC3)CC1 [Dapiprazole (hydrochloride)] (compound 10 µM) ?
-0.49

What would you report for CCOc1nc2cccc(C(=O)O)c2n1Cc1ccc(-c2ccccc2-c2nnn[nH]2)cc1 [Candesartan] (compound 10 µM) ?
0.32

Same again, this time with O=C(c1ccc(F)cc1)N1CCC[C@H](c2nc(-c3ccc(F)cc3)no2)C1 (compound 10 µM)
-3.29

Next up: CCCCCCCCOc1ccccc1C(=O)Nc1ccc(C(=O)OCC[N+](C)(CC)CC)cc1 [Otilonium (bromide)] (compound 10 µM)
2.8

Again, but for CC(=O)OCC(=O)NCCCOc1cccc(CN2CCCCC2)c1 [Roxatidine (Acetate Hydrochloride)] (compound 10 µM)
0.32

Likewise for CN1CCN(C2=Nc3cc(Cl)ccc3Nc3ccccc32)CC1 [Clozapine] (compound 10 µM) ?
-0.32

Try CC(C)(Cc1ccc2ccccc2c1)NC[C@@H](O)COc1cccc(Cl)c1C#N (compound 10 µM) next.
-8.76

# repeat for CN1CCN(C2=Nc3ccccc3Oc3ccc(Cl)cc32)CC1 [Loxapine] (compound 10 µM)
-0.55

And for Nc1ccc(/C=C/c2cccc(C(=O)O)n2)cc1 (compound 10 µM) ?
0.88

Proceed to CC(C)Oc1ccc(-c2nc(-c3cccc4c3CC[C@@H]4NCCO)no2)cc1C#N [Ozanimod] (compound 10 µM)
-0.62

---

# Tested on: MDA-MB-468
# experiment notes: phospho-S6 immunofluorescence (DAPI-normalised), per-plate z-score; higher = higher phospho-S6 signal (less pathway suppression)
# assay setup: co-treatment: vehicle; 24 h
Where a name gives a salt, the structure may show the parent alone.
test readout: phospho-S6 immunofluorescence (z-score)

Looking for the measured phospho-S6 immunofluorescence (z-score) of Nc1ncnc2c1ncn2C1CCCO1 (centres undefined) (compound 10 µM) , can you help?
-0.21

# iterate: COc1cc(C(C)=O)ccc1OCCCN1CCC(c2noc3cc(F)ccc23)CC1 [Iloperidone] (compound 10 µM)
0.38

Same for COc1ccc2c(c1)c(CC(=O)N1CCOCC1)c(C)n2C(=O)c1ccc(Cl)cc1 (compound 10 µM)
-6.12

And for COC(=O)[C@@H]1[C@H]2C[C@H]3c4[nH]c5ccccc5c4CCN3C[C@@H]2CC[C@@H]1O [Yohimbine (Hydrochloride)] (compound 10 µM) ?
1.59

Same thing, different compound: O=C(Nc1cccc2c(=O)cc(-c3nnn[nH]3)oc12)c1ccc(OCCCCc2ccccc2)cc1 [Pranlukast (hemihydrate)] (compound 10 µM)
0.31

Note, next up: CC(C)(Cc1ccc2ccccc2c1)NC[C@@H](O)COc1cccc(Cl)c1C#N [NPS-2143 (hydrochloride)] (compound 10 µM)
-9.7

Follow-up item: CN1CCC(=C2c3ccccc3CC(=O)c3sccc32)CC1 [Ketotifen (fumarate)] (compound 10 µM)
0.26

// query: O=C(O[C@@H]1C[C@@H]2C[C@H]3C[C@H](C1)N2CC3=O)c1c[nH]c2ccccc12 [Dolasetron (Mesylate hydrate)] (compound 10 µM)
0.62

// same read-out, input: CC1(C)CN2C(CSC(=NC3CCCCC3)NC3CCCCC3)=CSC2=N1 [IT1t (dihydrochloride)] (compound 10 µM)
-1.11

Another compound to check: Cc1ccccc1C(=O)Nc1ccc(C(=O)N2CCCC(O)c3cc(Cl)ccc32)c(C)c1 (centres undefined) [Tolvaptan] (compound 10 µM)
-0.25

Field entry: C[C@]12C=CC(=O)C=C1CC[C@@H]1[C@@H]2[C@@H](O)C[C@@]2(C)[C@H]1CC[C@]2(O)C(=O)CO [Prednisolone] (compound 10 µM)
0.05

Cool, now CC(C(=O)Nc1cc(C#N)ccc1CCCC(=O)O)c1ccc(F)c2ccccc12 (centres undefined) (compound 10 µM)
-0.03

// next record CN(C)N(C)C(=O)[C@@]1(Cc2ccccc2)CCCN(C(=O)[C@@H](Cc2c[nH]c3ccccc23)NC(=O)C(C)(C)N)C1 [Anamorelin (hydrochloride)] (compound 10 µM)
-0.1

Next entry: CCn1c(=O)c2c(nc(/C=C/c3ccc(OC)c(OC)c3)n2C)n(CC)c1=O [Istradefylline] (compound 10 µM)
-0.74
